This collection of values is drawn from ChEMBL document CHEMBL3988442.

So I've got a bunch of molecules here, and I need their Percent Effect values.
- system: Aspartate--tRNA(Asp/Asn) ligase (Mycobacterium tuberculosis (strain ATCC 25618 / H37Rv)); also: in the data most compounds retested in dose-response had high values
- assay-method-text: Assay for Asp RNA synthetase-1 from Mycobacterium tuberculosis
- Format: functional
- Parameters: scale not given: direction of the effect not stated beside the values
- condition-info: 30 µM
Please give a number only; it is taken to be in %.

The molecule listed as c1cnnc(N2CCCC(NCc3nc(C4CC4)no3)C2)c1 (stereo not drawn) shows Percent Effect equal to 6.87

Given item Cc1cccc(CN2C(=O)C[C@H]3[C@@H]2CCN3Cc2ccccn2)n1 , the value recorded as its Percent Effect is 3.98

So, Cc1cc(CN2CCCC2c2noc(C)n2)no1 (stereo not drawn) ? Its Percent Effect was -5.01

Value of Percent Effect reported for the molecule CCCn1ncc(CN2C[C@@H]3CCCN3C[C@@H]2CCSC)c1C is -1.92

The measured Percent Effect associated with Cc1nc(C)n(CC2CN(Cc3cccc(C#N)c3)CCO2)n1 (stereo not drawn) reads 3.11

Recorded result, CNS(=O)(=O)c1ccc(C(=O)N2CCCC(n3cccn3)C2)cc1 (stereo not drawn) , Percent Effect: 0.589

Entry Cc1cc(CN2CCN(CC(O)c3ccccc3)CC2)no1 (stereo not drawn) ; Percent Effect = -5.08

Memo: COc1c(C2CCCN2Cc2csc(C(C)C)n2)c(C)nn1C (stereo not drawn) , reported Percent Effect: -1.4

----------
- Tested on: Trypanosoma cruzi
- assay-method-text: Trypanosoma cruzi phosphomannomutase and mannose-1-phosphate guanylyltransferase assay
- Type: functional
- Design: scale not given: direction of the effect not stated beside the values
- condition-info: 10 µM
observable: Percent Effect (%)
Quick reminder: number only, in %, skip the unit.

Notebook: Cc1cccc(CN2C[C@H](NS(C)(=O)=O)[C@@H]3OCCC[C@@H]32)n1 , Percent Effect read as -4.83

Memo: c1cncc(N2CCOCC3(CCCN(Cc4cccs4)C3)C2)c1 (configuration not stated) , reported Percent Effect: -0.293

According to the records, this compound O=C(c1ccc2c(c1)COC2)N1CCC(Nc2ccccc2)CC1 displays Percent Effect of 5.06

Per the record, C[C@@H]1C(=O)NC[C@H]2CN(Cc3ccsc3)C[C@H]21 has Percent Effect of 1.88

response.value for COCC1CC2(CCN(Cc3ccccn3)CC2)CN1C(C)C (configuration not stated) (field: Percent Effect) = 7.11

Item: c1ccc(N2CCCC3(CCN(Cc4nccs4)C3)C2)nc1 (configuration not stated) | Percent Effect: 0.75

# Percent Effect of COCC(=O)N1C[C@@H]2OCCN(Cc3c(C)noc3C)[C@@H]2C1 = 3.02

Lookup result for CC(C)N1CCOCC2(CN(Cc3ccccn3)CCO2)C1 (configuration not stated) ; measured Percent Effect: -2.86

Value of Percent Effect reported for the compound NC(=O)N1C[C@H]2CN(Cc3nccs3)C[C@H]2C1 is -3.62

Lab book: Percent Effect of Cc1noc(C)c1CN1CCOC2(CCCN(c3nccs3)C2)C1 (configuration not stated) noted as -6.18

Reported Percent Effect for c1cncc(OC[C@]23COC[C@H]2CN(Cc2cccs2)C3)c1 was -2.34

Notebook: CNC(=O)c1ccc2c(c1)C1(CCN(CC(C)C)CC1)C(=O)N2 , Percent Effect read as -4.2

----------
Consider the following compounds; for each one, report its Percent Effect.
- system: Aspartate--tRNA(Asp/Asn) ligase (Mycobacterium tuberculosis (strain ATCC 25618 / H37Rv)) (UniProt P9WFW3); also: in the data most compounds retested in dose-response had high values
- Sequence (P9WFW3 whole entry): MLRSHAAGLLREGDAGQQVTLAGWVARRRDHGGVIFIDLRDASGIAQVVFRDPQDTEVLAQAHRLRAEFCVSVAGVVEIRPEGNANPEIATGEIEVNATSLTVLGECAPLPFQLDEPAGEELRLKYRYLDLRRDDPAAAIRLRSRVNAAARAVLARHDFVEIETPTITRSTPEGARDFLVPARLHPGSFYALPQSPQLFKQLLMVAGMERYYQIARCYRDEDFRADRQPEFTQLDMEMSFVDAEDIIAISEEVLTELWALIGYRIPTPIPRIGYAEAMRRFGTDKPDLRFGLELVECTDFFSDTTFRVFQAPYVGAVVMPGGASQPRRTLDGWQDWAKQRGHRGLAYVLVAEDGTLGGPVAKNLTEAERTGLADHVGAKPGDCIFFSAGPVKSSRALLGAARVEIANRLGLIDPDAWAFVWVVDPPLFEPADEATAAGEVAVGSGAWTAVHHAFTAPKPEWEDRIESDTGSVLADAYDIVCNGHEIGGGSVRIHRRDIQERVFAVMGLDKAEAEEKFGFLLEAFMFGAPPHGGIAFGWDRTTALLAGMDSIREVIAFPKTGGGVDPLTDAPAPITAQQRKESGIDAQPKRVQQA
- assay-method-text: Assay for Asp RNA synthetase-1 from Mycobacterium tuberculosis
- Format: functional
- Design: scale not given: direction of the effect not stated beside the values
- condition-info: 30 µM
Report the figure in % without appending any unit label.

Looking up Cc1csc(N2CCN(CC(=O)Nc3c(C)n[nH]c3C)CC2C)n1 (configuration not stated) , I see its Percent Effect listed as 2.07

Input Cc1nc(CN2CCO[C@@H]3CN(C(=O)NC(C)C)CC[C@@H]3C2)cs1 . Output Percent Effect: 3.49

In plain terms, Cc1ccc(-c2cc(CNC(=O)N3CCOC(C)C3)on2)cc1 (configuration not stated) has a documented Percent Effect of 0.699

Lookup result for c1ccc(N2CCCC3(CCN(Cc4cccs4)C3)C2)nc1 (configuration not stated) ; measured Percent Effect: -1.46

Reported Percent Effect for CCOCCn1nc(C)cc1C(=O)N1CCN(C(C)C)C(CC)C1 (configuration not stated) was -1.08

Recorded Percent Effect (compound COCC(=O)N1CC[C@@H](O)[C@@H]1Cc1ccccc1 ): 4.62

For record NC(=O)C1CCN(Cn2nc(-c3ccccc3)oc2=O)CC1 the listed Percent Effect is 9.54

Documented Percent Effect of CS(=O)(=O)c1ccccc1C(=O)NCC1Cc2ccccc2O1 (configuration not stated) : 9.98

Percent Effect recorded for this compound, CN(C)c1cc(CNC(=O)Nc2ccc(S(C)(=O)=O)nc2)ccn1 , is -1.23

CCN(CC)C(=O)CCNC(=O)N1CCC(c2ccccc2)C1 (configuration not stated) has a reported Percent Effect of -1.42

For this compound ( COCc1c(C(=O)NC2CCCC2)nnn1-c1ccc(C)cc1 ), measured Percent Effect is -4.96

The value of Percent Effect measured for the compound Cc1noc(NC(=O)c2ccc(Br)s2)n1 turned out to be 2.08

Sure, the documented Percent Effect for CCc1nc(C)c([C@H]2CN(C)C[C@@H]2C(=O)NCCc2cnccn2)[nH]1 is -1.15

compound CC(C)NC(=O)C1CN(C(=O)c2ccc(F)cc2)CC12CCOCC2 (configuration not stated) , Percent Effect observed: 0.581

Record CCS(=O)(=O)N1CCc2ccc(NC(=O)Nc3ccc(F)cc3F)cc21 . Reported Percent Effect: 1.65

GET /value?item= Cc1cc(C)nc(CCNC(=O)C(c2ccc(F)cc2)N(C)C)n1 (configuration not stated) &field=Percent Effect returns -1.5

Sample O=C(Cn1nc2c(cc1=O)CCCC2)N[C@@H](Cc1ccccc1)C(=O)O ; Percent Effect observed: 0.174

Given item Cc1nn(C)c(N(C)C)c1CNCc1ccccc1Cn1cncn1 , the value recorded as its Percent Effect is -4.47

Lookup result for CC(C)(C)n1cc(C(=O)N2CCN(Cc3ccccc3F)CC2)cn1 ; measured Percent Effect: -1.61

Reported Percent Effect for CN(Cc1cn2ccccc2n1)C1CCCN(c2cccnn2)C1 (configuration not stated) was 3.45

Sample CC(=O)Nc1nc(C(=O)N2CCCC2c2ccccc2C)cs1 (configuration not stated) ; Percent Effect observed: -0.698

// Cc1cnc(CN2CCCC(c3cc(C(N)=O)[nH]n3)C2)o1 (configuration not stated) : Percent Effect value = 9.73

Reported Percent Effect ( Cc1cc(-c2cnc(N3CCNC(=O)C3)nc2-c2ccc(C)o2)on1 ) = -1.93

Percent Effect for O=C(c1cc(COc2ccc3c(c2)OCO3)[nH]n1)N1CCCC1 is 0.912

Short answer for Cc1nc(C)n(C2CCCN(C(=O)COCc3ccccc3)C2)n1 (configuration not stated) : Percent Effect was -4.95

Record Cc1nc(CCNC(=O)NCc2ccc(N(C)C)nc2)cs1 . Reported Percent Effect: -1.75

get_value(item= CNCCc1nc2cc(F)ccc2[nH]1 , readout=Percent Effect) returns 5.99

// COCCCN1CCCN(C(C)C(=O)Nc2ccnn2C(C)C)CC1 (configuration not stated) : Percent Effect value = -3.7

Reported Percent Effect for COc1cccc(CC2CN(C3CCN(C(C)=O)CC3)CCO2)c1 (configuration not stated) was -4.28

The compound listed as Cc1ccc(-n2nnc(CC(=O)N3CCSCC3)c2C)cc1 shows Percent Effect equal to 2.79

// field: Percent Effect; key: CC(C)c1nn(C)c(N(C)C)c1CNCc1ccc2c(c1)OCO2 ; value = -1.77

Percent Effect reading for Cc1csc(N2CCCN(C(=O)C(C(C)C)n3cncn3)CC2)n1 (configuration not stated) : -2.24

----------
- system: Aspartate--tRNA(Asp/Asn) ligase (Mycobacterium tuberculosis (strain ATCC 25618 / H37Rv)) (UniProt P9WFW3); also: in the data most compounds retested in dose-response had high values
- assay-method-text: Assay for Asp RNA synthetase-1 from Mycobacterium tuberculosis
- Type: functional
- Parameters: scale not given: direction of the effect not stated beside the values
- condition-info: 30 µM
observable: Percent Effect (%)
Kindly answer with a numeric value in %, unit omitted.

Form field Percent Effect, entry O=C(NCC1CC1)C1CN(C(=O)c2cccc(Cl)c2)CC12CCOCC2 (stereo not drawn) : 11.9

Documented Percent Effect of Cc1nc(C)c(C(=O)NCCNC(=O)c2ccc(F)cc2F)s1 : -2.04

Measured Percent Effect of CC1=Nc2c(c(=O)[nH]n2C(C)C)C(c2cccs2)S1 (stereo not drawn) : 7.78

Reported Percent Effect for Cn1cc(CN2CCC3(C2)CN(Cc2ccsc2)C3)cn1 was 1.9

# Percent Effect of Cc1cnn(CC2CCCN2Cc2nc3ccccc3n2C)c1 (stereo not drawn) = 3.43

Record COCC1CN(C(=O)COc2ccccc2)Cc2cn(C)nc21 (stereo not drawn) . Reported Percent Effect: 1.18

Given item COc1ccccc1C(=O)N1CC(Cc2nccc3ccn(C)c23)C1 , the value recorded as its Percent Effect is -0.878

# Percent Effect (compound: Cc1n[nH]c(C2CN(CC(=O)NCc3ccco3)CCO2)n1 (stereo not drawn) ) is 0.448
